System: M. tuberculosis (H37Rv strain)
Experiment Description: Microplate Alamar Blue Assay (MABA) susceptibility assay in BACTEC 12B medium
Format: cell-based
Assay Conditions: Mycobacterium tuberculosis; Table 1, H37Rv strain; read-out: IC90 value (v. M. tuberculosis)
Assay Endpoint: IC90

Please review the following examples before continuing.
• CC(C)(C)c1cc(NC(=O)CCCCNC(=N)N)c(SCCN)c(NC(=O)Nc2cc(C(C)(C)C)cc(NC(=O)CCCCNC(=N)N)c2SCCN)c1 = < 20 µg/mL
• CC(C)(C)c1cc(N)c(SCCNC(=N)N)c(NC(=O)c2cc(C(=O)Nc3cc(C(C)(C)C)cc(N)c3SCCNC(=N)N)c(OCCNC(=N)N)cc2OCCNC(=N)N)c1 = < 5 µg/mL
• CC(C)(C)c1cc(N)c(SCCNC(=N)N)c(NC(=O)c2cc(OCCNC(=N)N)cc(C(=O)Nc3cc(C(C)(C)C)cc(N)c3SCCNC(=N)N)c2)c1 = < 5 µg/mL

Fill in the blank: the reported IC90 of `N=C(N)NCCCCC(=O)Nc1cccc(NC(=O)c2cc(C(=O)Nc3cccc(NC(=O)CCCCNC(=N)N)c3SCCN)ncn2)c1SCCN` is ____. < 5 µg/mL
